Examples of compounds with documented pIC50 follow.
Target: Serotonin Type 2 (5-HT2) (Rattus norvegicus)
Sequence (P14842 whole entry): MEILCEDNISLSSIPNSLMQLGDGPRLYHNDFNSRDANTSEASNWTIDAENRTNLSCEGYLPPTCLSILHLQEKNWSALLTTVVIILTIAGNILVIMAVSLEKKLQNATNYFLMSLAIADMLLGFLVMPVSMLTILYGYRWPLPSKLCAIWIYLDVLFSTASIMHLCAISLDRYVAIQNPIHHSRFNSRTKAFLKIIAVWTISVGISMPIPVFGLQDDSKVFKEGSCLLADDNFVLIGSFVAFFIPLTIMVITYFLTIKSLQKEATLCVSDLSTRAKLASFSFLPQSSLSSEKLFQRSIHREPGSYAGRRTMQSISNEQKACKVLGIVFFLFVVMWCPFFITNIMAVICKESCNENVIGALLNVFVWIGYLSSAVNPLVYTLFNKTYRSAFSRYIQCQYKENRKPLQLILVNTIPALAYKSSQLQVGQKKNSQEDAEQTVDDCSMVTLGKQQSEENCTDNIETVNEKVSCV
Hey, just a heads up that pIC50 is the negative log base 10 of the concentration in molar.

Example entries and their recorded answers appear below.
compound	test system	pIC50
O=C1CC2(CCC(O)C2)CC(=O)N1CCC(O)CN1CCN(c2nsc3ccccc23)CC1 (stereo not shown) [Reference # 9]	Serotonin Type 2 (5-HT2) (Rattus norvegicus)	7.70
O=C1CC2(CCC(O)C2)CC(=O)N1CCCCN1CCN(c2nsc3ccccc23)CC1 (stereo not shown) [Reference # 2]	Serotonin Type 2 (5-HT2) (Rattus norvegicus)	8.69

Turning now to a further compound:
Problem: Which pIC50 value belongs to O=C1CC2(CCCC2)CC(=O)N1CCC(O)CN1CCN(c2nsc3ccccc23)CC1 (stereo not shown) [Reference # 7] ?
Solution: 7.99

###

Molecular target: Dopamine/Spiperone/neuroleptic receptor site
Assay: Receptor binding test RB1, [3H] Spiperone ligand, D(+)Butaclamol specific binding agent
readout type: pIC50
Hey, just a heads up that pIC50 is the negative log base 10 of the concentration in molar.

Example entries and their recorded answers appear below.
compound	readout type	observed value
O=C1CC2(CCCC2)CC(=O)N1CCC(O)CN1CCN(c2nsc3ccccc23)CC1 (stereo not shown) [Reference # 7]	pIC50	6.95
CCCCCCCCCC(=O)OC1CCC2(CC(=O)N(CCCCN3CCN(c4nsc5ccccc45)CC3)C(=O)C2)C1 (stereo not shown) [Reference # 12]	pIC50	6.82
O=C1CC2(CCC(O)C2)CC(=O)N1CCC(O)CN1CCN(c2nsc3ccccc23)CC1 (stereo not shown) [Reference # 9]	pIC50	6.31
O=C1CCC2(C1)CC(=O)N(CCCCN1CCN(c3nsc4ccccc34)CC1)C(=O)C2 [Reference # 5]	pIC50	7.17
O=C1CC2(CCC(O)C2)CC(=O)N1CCCCN1CCN(c2nsc3ccccc23)CC1 (stereo not shown) [Reference # 2]	pIC50	7.28

Turning now to a further compound:
Problem: Please provide the recorded pIC50 for O=C1CC2(CCCC2)CC(=O)N1CCCCN1CCN(c2n[s+]([O-])c3ccccc23)CC1 (stereo not shown) [Reference # ii, reference compound] , tested on Dopamine/Spiperone/neuroleptic receptor site.
Solution: 5.46

###

Molecular target: Alpha-1
Assay: Receptor binding test RB2, [3H] WB-4104 ligand, Phentolamine specific binding agent
readout type: log10(IC50) (log10 of the value in nM)
Values below are the log10 of the recorded IC50, with nM as the unit.

Example entries and their recorded answers appear below.
compound	log10(IC50)
O=C1CCC2(C1)CC(=O)N(CCCCN1CCN(c3nsc4ccccc34)CC1)C(=O)C2 [Reference # 5]	0.11
O=C1CC2(CCCC2)CC(=O)N1CCC(O)CN1CCN(c2nsc3ccccc23)CC1 (centres unmarked) [Reference # 7]	0.92
O=C1CC2(CCCC2)CC(=O)N1CCCCN1CCN(C2=NS(=O)(=O)c3ccccc32)CC1 [Reference # 1]	2.44
O=C1CC2(CCCC2)CC(=O)N1CCCCN1CCN(c2n[s+]([O-])c3ccccc23)CC1 (centres unmarked) [Reference # ii, reference compound]	2.52
c1ccc2c(N3CCNCC3)nsc2c1 [Reference # 14, 4-(1,2-benzisothiazol-3-yl)1H-piperazine]	2.71
O=C1CC2(CCCC2)CC(=O)N1CCCCN1CCN(c2nsc3ccccc23)CC1 [Reference # i]	1.67
O=C1CC2(CCC(O)C2)CC(=O)N1CCCCN1CCN(c2nsc3ccccc23)CC1 (centres unmarked) [Reference # 2]	-0.06

Turning now to a further compound:
Problem: Which log10(IC50) value belongs to O=C1CC2(CCC(O)C2)CC(=O)N1CCC(O)CN1CCN(c2nsc3ccccc23)CC1 (centres unmarked) [Reference # 9] ?
Solution: 0.85
